Target: Recombinant CatD (Homo sapiens (Human))
Sequence (P07339 65-412): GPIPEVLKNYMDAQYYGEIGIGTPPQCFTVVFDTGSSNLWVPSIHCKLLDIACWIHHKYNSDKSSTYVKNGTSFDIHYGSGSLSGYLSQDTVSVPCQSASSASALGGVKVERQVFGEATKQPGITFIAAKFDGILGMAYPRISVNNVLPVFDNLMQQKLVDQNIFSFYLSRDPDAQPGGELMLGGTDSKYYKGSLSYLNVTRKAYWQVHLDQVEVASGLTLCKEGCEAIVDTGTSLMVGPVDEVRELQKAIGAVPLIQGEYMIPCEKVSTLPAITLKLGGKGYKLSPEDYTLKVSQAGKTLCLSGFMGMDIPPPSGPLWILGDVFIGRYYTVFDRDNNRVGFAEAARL
Assay: In vitro enzymatic Cathepsin D (CatD) FRET assay
Details: pH 3.5, read-out: Cat D Enzyme IC50
readout: IC50 (µM)
Express the result in µM but write the number alone.

Reference set, count: 5
>>> measured_number("N#CC[C@]12C[C@H]1[C@@](CF)(c1cc(C#Cc3ccc(C#N)cn3)ccc1F)N=C(N)S2 [Example 106]")
614
>>> measured_number("C#CCOc1ccc(C#Cc2ccc(F)c([C@@]3(C)N=C(N)S[C@@]4(C(=O)N(C)C)C[C@H]43)c2)nc1 [Example 130]")
926
>>> measured_number("N#Cc1cnc(C#Cc2ccc(F)c([C@@]3(CF)N=C(N)S[C@@]4(CF)C[C@H]43)c2)s1 [Example 109]")
705
>>> measured_number("N#C/C=C/[C@]12C[C@H]1[C@@](CF)(c1cc(C#Cc3ccc(C#N)cn3)ccc1F)N=C(N)S2 [Example 107]")
239
>>> measured_number("Cc1cc(C#N)cnc1C#Cc1ccc(F)c([C@@]2(C)N=C(N)S[C@@]3(C#N)C[C@H]32)c1 [Example 126]")
268

Next compound, IC50 to be filled in.
Write down the reported IC50 of NC1=N[C@](CF)(c2cc(C#Cc3ccc(Cl)cn3)ccc2F)[C@@H]2C[C@]2(CF)S1 [Example 102] , test system: Recombinant CatD (Homo sapiens (Human)).
673
